Experiment description: activity coefficient (dimensionless); of the first substance listed, at infinite dilution; xn = mol fraction of the nth substance listed
Protocol conditions: 368.15 K; 100 kPa; Liquid; Chromatography; x1 = 0
Attribute measured: activity coefficient
Lab note: jot down the number only; don't add units.

Worked cases, answers included:
Compound | Attribute measured | Measured result
CCC(C)(C)C [2,2-dimethylbutane] + CCCC[n+]1ccc(C#N)cc1.O=S(=O)([N-]S(=O)(=O)C(F)(F)F)C(F)(F)F | activity coefficient | 19.7
CCCCO [butan-1-ol] + CCCC[n+]1ccc(C#N)cc1.O=S(=O)([N-]S(=O)(=O)C(F)(F)F)C(F)(F)F | activity coefficient | 2.15
CCCc1ccccc1 [propylbenzene] + CCCC[n+]1ccc(C#N)cc1.O=S(=O)([N-]S(=O)(=O)C(F)(F)F)C(F)(F)F | activity coefficient | 4.58
CC#N [acetonitrile] + CCCC[n+]1ccc(C#N)cc1.O=S(=O)([N-]S(=O)(=O)C(F)(F)F)C(F)(F)F | activity coefficient | 0.531
CCCCCO [pentan-1-ol] + CCCC[n+]1ccc(C#N)cc1.O=S(=O)([N-]S(=O)(=O)C(F)(F)F)C(F)(F)F | activity coefficient | 2.67
CCCCC [pentane] + CCCC[n+]1ccc(C#N)cc1.O=S(=O)([N-]S(=O)(=O)C(F)(F)F)C(F)(F)F | activity coefficient | 16
CC(C)c1ccccc1 [isopropylbenzene] + CCCC[n+]1ccc(C#N)cc1.O=S(=O)([N-]S(=O)(=O)C(F)(F)F)C(F)(F)F | activity coefficient | 4.56
COC(C)=O [methyl ethanoate] + CCCC[n+]1ccc(C#N)cc1.O=S(=O)([N-]S(=O)(=O)C(F)(F)F)C(F)(F)F | activity coefficient | 0.839
CCC(C)CC [3-methylpentane] + CCCC[n+]1ccc(C#N)cc1.O=S(=O)([N-]S(=O)(=O)C(F)(F)F)C(F)(F)F | activity coefficient | 20.6
C=CCCCCCCCC [1-decene] + CCCC[n+]1ccc(C#N)cc1.O=S(=O)([N-]S(=O)(=O)C(F)(F)F)C(F)(F)F | activity coefficient | 49

Using the record for CCOC(C)=O [ethyl acetate] + CCCC[n+]1ccc(C#N)cc1.O=S(=O)([N-]S(=O)(=O)C(F)(F)F)C(F)(F)F , report its activity coefficient.
1.15

# repeat for CCC[N+](=O)[O-] [1-nitropropane] + CCCC[n+]1ccc(C#N)cc1.O=S(=O)([N-]S(=O)(=O)C(F)(F)F)C(F)(F)F
0.904

# repeat for CCCC(C)=O [pentan-2-one] + CCCC[n+]1ccc(C#N)cc1.O=S(=O)([N-]S(=O)(=O)C(F)(F)F)C(F)(F)F
0.95

# repeat for CC(C)=O [acetone] + CCCC[n+]1ccc(C#N)cc1.O=S(=O)([N-]S(=O)(=O)C(F)(F)F)C(F)(F)F
0.531

# repeat for CCO [ethanol] + CCCC[n+]1ccc(C#N)cc1.O=S(=O)([N-]S(=O)(=O)C(F)(F)F)C(F)(F)F
1.33

# repeat for C1CCCC1 [cyclopentane] + CCCC[n+]1ccc(C#N)cc1.O=S(=O)([N-]S(=O)(=O)C(F)(F)F)C(F)(F)F
8.14

# repeat for c1ccsc1 [thiophene] + CCCC[n+]1ccc(C#N)cc1.O=S(=O)([N-]S(=O)(=O)C(F)(F)F)C(F)(F)F
1.18

# repeat for CCCCCCCC [octane] + CCCC[n+]1ccc(C#N)cc1.O=S(=O)([N-]S(=O)(=O)C(F)(F)F)C(F)(F)F
42.4

# repeat for CC1CCCCC1 [methylcyclohexane] + CCCC[n+]1ccc(C#N)cc1.O=S(=O)([N-]S(=O)(=O)C(F)(F)F)C(F)(F)F
16.2
